So I've got a bunch of compounds here, and I need their growth values.
# Test system: RXF 393 renal
# assayNotes: NCI-60 one-dose screen, 48 h (100 = growth as untreated, 0 = no growth, -100 = all killed)
# testParameters: 10 µM unless noted
Compounds without any hit were thinned out: in the full panel of roughly 83,000, 20% have a hit.
Could you give me the number in %? Just the number is fine.

Request: So what's the measured growth for this one? CO[C@H](/C(C)=C/C=C/C(C)=C/c1coc(C)n1)[C@H](C)[C@H]1C[C@@H](O)[C@@]2(C)O[C@H]2/C=C/[C@@H](C)[C@@H]2C[C@@H](CC(=O)O2)C[C@H]2O[C@@H]2C(=O)O1
Response: 13.7

Request: So what's the measured growth for this one? CC1=C2C(=O)[C@H]3[C@@H](CC=C4C[C@@H](O)CC[C@@]43C)[C@@H]2CC[C@]12O[C@@H]1C[C@H](C)CN[C@H]1[C@H]2C
Response: 98.8

Request: So what's the measured growth for this one? Cc1ccc(C(=O)OC(C(=O)O)C(OC(=O)c2ccc(C)cc2)C(=O)O)cc1 (stereo not drawn) (tested in a mixture with another compound)
Response: 54.1

====

# Tested on: MDA-MB-231 breast
# assayNotes: NCI-60 one-dose screen, 48 h (100 = growth as untreated, 0 = no growth, -100 = all killed)
# testParameters: 10 µM unless noted
The panel holds about 83,000 compounds, 20% with a hit somewhere; the sample as a whole holds those more often. Active and inactive are the calls of the source. Rule for the calls: active = growth percent below 10; inactive = the rest.
recordedMetric: growth

Request: So what's the measured growth for this one? COC1CC(CC2CCC(C)C(C(C)C(=O)O)O2)OC2(OC(C)(C3CCC(C)(C4OC(C5OC(O)(CO)C(C)CC5C)CC4C)O3)CC2C)C1C (stereo not drawn)
Response: -21.7% (active)

Request: So what's the measured growth for this one? COc1ccc(OC)c(/C=C/[N+](=O)[O-])c1
Response: 5.7% (active)

Request: So what's the measured growth for this one? CCC1(O)CC(OC2CC(N(C)C)C(OC3CC4OC5CC(=O)C(C)OC5OC4C(C)O3)C(C)O2)c2c(cc3c(c2O)C(=O)c2c(O)ccc(O)c2C3=O)C1C(=O)OC (stereo not drawn)
Response: -5.87% (active)

Request: So what's the measured growth for this one? CCCCCCCCCCCC1CCCC(C)N1 (stereo not drawn)
Response: 72% (inactive)

Request: So what's the measured growth for this one? C[C@]12CC[C@H](O)CC1=CC[C@@H]1[C@@H]2CC[C@]2(C)C(=O)CC[C@@H]12
Response: 106% (inactive)

Request: So what's the measured growth for this one? CC[C@@]1(O)C[C@H](OC2CC(N(C)C)C(OC3CC(O)C(OC4CCC(=O)C(C)O4)C(C)O3)C(C)O2)c2c(cc3c(c2O)C(=O)c2c(O)ccc(O)c2C3=O)[C@H]1C(=O)OC (stereo partly drawn)
Response: 28.4% (inactive)

Request: So what's the measured growth for this one? COC1=C(C)C(=O)C2=C(C1=O)C(CO)N1C(C#N)C3CC4C(C1C2N1CCOC41)N3C (stereo not drawn)
Response: -11.9% (active)

Request: So what's the measured growth for this one? CC[n+]1c(-c2ccccc2)c2cc(N)ccc2c2ccc(N)cc21
Response: 33.1% (inactive)
